# System: ATP;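 further: ATP exposure 15 min at 22 °C before imaging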
# ASSAY_NAME: switch fluorescence ratio, 500 uM ATP over buffer (Cy3 cluster intensity, sum of 5 cycles each) (fold (ratio)); higher = stronger signal-on switching upon ATP binding; sequences stand for … in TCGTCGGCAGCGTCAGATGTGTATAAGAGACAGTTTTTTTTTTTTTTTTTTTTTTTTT…TC
# DETAILS: aptamer strand: ATP DNA aptamer (quencher-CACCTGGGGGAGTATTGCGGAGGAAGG + anchor), 100 nM annealed; ATP concentration: 500 uM
QUANTITY_KIND: switch fluorescence ratio
Lab note: jot down the number only; don't add units.

Worked examples, 2 sequences total:
sequence_input=AAATATTGCG system_tested=ATP observed_result=0.997
sequence_input=GTGTTTAAAG system_tested=ATP observed_result=0.98

Problem: Would you kindly share the measured switch fluorescence ratio for TAATTACAGT ?
Result: 0.99

Problem: Next record, please: TCAAGATTAT
Result: 0.994

Problem: What about this sequence? CGAACTCCTG
Result: 1.05

Problem: Repeat for the following sequence: ATATGTTATG
Result: 0.982

Problem: Now this one: ATGTGAAGAG
Result: 0.995

Problem: Queued: TGAGTGCTGT
Result: 0.968

Problem: How about TTGTTTTTGT ?
Result: 1.03

Problem: What about GGTAGTGGGC ?
Result: 1.02

Problem: Another: ATGTGAGTAT
Result: 0.975

Problem: And CGAGGTAGAG ?
Result: 1.01

Problem: Similarly, CCTGTTTTAC ?
Result: 1.24

Problem: Quick one: ATGAACGTTT
Result: 1.2

----------
# Test system: ATP;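 further: ATP exposure 15 min at 22 °C before imaging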
# ASSAY_NAME: switch fluorescence ratio, 500 uM ATP over buffer (Cy3 cluster intensity, sum of 5 cycles each) (fold (ratio)); higher = stronger signal-on switching upon ATP binding; sequences stand for … in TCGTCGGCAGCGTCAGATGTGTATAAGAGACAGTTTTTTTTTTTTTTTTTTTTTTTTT…TC
# DETAILS: aptamer strand: ATP DNA aptamer (quencher-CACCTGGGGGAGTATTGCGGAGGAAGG + anchor), 100 nM annealed; ATP concentration: 500 uM
Assign T to entries whose switch fluorescence ratio meets or exceeds 1; assign F to the rest.

Below are worked cases with known answers.
sequence_input=CGCCCCGTCA assigned_label=F
sequence_input=ACTGAGTGGC assigned_label=T

Problem: // inclusive: switch fluorescence ratio at least 1? input: ACTGTAAGGC
Result: T

Problem: Cool, now GTGCTAAGAG
Result: F

Problem: Same for AGCAACCGGT
Result: T

Problem: Okay, and ACCACGGTTG ?
Result: T

Problem: Next up: GGACGGGTGC
Result: T

Problem: Next sequence: GAAGGGCAGT
Result: F

Problem: Queued: CAGTGTCCGC
Result: T

Problem: Another sequence to look at: AGCTGCCCCA
Result: T

----------
# System: ATP;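 further: ATP exposure 15 min at 22 °C before imaging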
# ASSAY_NAME: switch fluorescence ratio, 500 uM ATP over buffer (Cy3 cluster intensity, sum of 5 cycles each) (fold (ratio)); higher = stronger signal-on switching upon ATP binding; sequences stand for … in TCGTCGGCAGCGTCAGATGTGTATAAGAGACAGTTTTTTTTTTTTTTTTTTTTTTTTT…TC
# DETAILS: aptamer strand: ATP DNA aptamer (quencher-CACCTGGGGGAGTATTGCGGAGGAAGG + anchor), 100 nM annealed; ATP concentration: 500 uM
QUANTITY_KIND: switch fluorescence ratio
Quick one: just the number, no unit, thanks!

These solved cases illustrate the format of a correct answer.
sequence_input=CTCTAAGT observed_result=1.01
sequence_input=TTATTTTTAA observed_result=0.981
sequence_input=GGAAGGGTTG observed_result=1
sequence_input=CAGTGGAGGA observed_result=1
sequence_input=TGATAATAGG observed_result=0.989

Read the next record carefully.
Problem: What reported switch fluorescence ratio corresponds to TAAGGGGGTA on ATP?
Result: 0.992

Data origin, for the record: the supplement of paper PMC10126150
